# study.target: SARS-CoV-2 nucleocapsid protein (Np) (SARS-CoV-2, UniProt P0DTC9 1-419)
# assay.procedure: EMSA; apparent, cooperative fit
# condition.summary: protein: recombinant; tags: His (pET30a(+), Ni-NTA purified); chain copies: 2; label: 5'-FAM on the 18 mer
parameter: pKd
Expect pKd as a plain number equal to -log10 of the molar concentration.

Ask: Please give measured pKd of the following entry: 18/38 mer FAM partially dsRNA (dsRNA) RNA 1: AUGAAGGUUUGAGUUGAGUGGAGAUAGUGGAGGGUAGU RNA 2: CUCAACUCAAACCUUCAU
Reply: 6.77

FYI, the data here is from paper PMC10058294.
